- experimental system: FES^WT (Homo sapiens, UniProt P07332)
- Construct: human FES cDNA encoding residues 448–822 or human FER cDNA encoding residues 448–820 was amplified by PCR; made in house; host or cells: E. coli BL21(DE3), co-expressing YopH phosphatase
- Sequence (P07332 448-822): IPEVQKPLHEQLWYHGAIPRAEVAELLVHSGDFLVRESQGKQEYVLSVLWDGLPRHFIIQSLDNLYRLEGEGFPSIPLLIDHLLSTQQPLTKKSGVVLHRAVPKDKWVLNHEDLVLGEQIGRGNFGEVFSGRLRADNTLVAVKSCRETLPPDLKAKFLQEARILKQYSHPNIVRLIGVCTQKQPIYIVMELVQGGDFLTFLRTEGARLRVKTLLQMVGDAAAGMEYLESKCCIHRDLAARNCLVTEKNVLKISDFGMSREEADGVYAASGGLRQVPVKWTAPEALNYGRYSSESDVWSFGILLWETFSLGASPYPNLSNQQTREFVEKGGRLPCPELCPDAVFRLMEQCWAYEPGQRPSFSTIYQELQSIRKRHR
- assay explanation: PamChip microarray peptide phosphorylation
- Assay type: biochemical
- measurement context: peptide substrate phosphorylated by FES - WT
So I've got a bunch of substances here, and I need their Relative phosphorylation (% of highest signal) values.

Return reported Relative phosphorylation (% of highest signal); argument: EPHA4_921_933 (QAIKMDRYKDNFT; UniProt P54764 921-933, looked up, fragment)
-0.348 % of highest signal

Return reported Relative phosphorylation (% of highest signal); argument: VGFR1_1320_1332_C1320K/C1321K (KKSPPPDYNSVVL; UniProt P17948 1320-1332, looked up, variant C1320K C1321K)
2.0 % of highest signal

Return reported Relative phosphorylation (% of highest signal); argument: VGFR2_944_956 (RFRQGKDYVGAIP; UniProt P35968 944-956, looked up, fragment)
0.741 % of highest signal

Return reported Relative phosphorylation (% of highest signal); argument: STA5A_687_699 (LAKAVDGYVKPQI; UniProt P42229 687-699, looked up, fragment)
-0.46 % of highest signal

Return reported Relative phosphorylation (% of highest signal); argument: ZBT16_621_633 (LRTHNGASPYQCT; UniProt Q05516 621-633, looked up, fragment)
0.657 % of highest signal

Data origin: paper PMC7316778
